target: PE-labeled human PD-L1-Ig binding to Jurkat cell line over-expressing human PD-1 (Jurkat-PD-1) (Homo sapiens, UniProt Q15116)
Construct: expressed in transfected cells; host or cells: Jurkat
Sequence (Q15116 25-288): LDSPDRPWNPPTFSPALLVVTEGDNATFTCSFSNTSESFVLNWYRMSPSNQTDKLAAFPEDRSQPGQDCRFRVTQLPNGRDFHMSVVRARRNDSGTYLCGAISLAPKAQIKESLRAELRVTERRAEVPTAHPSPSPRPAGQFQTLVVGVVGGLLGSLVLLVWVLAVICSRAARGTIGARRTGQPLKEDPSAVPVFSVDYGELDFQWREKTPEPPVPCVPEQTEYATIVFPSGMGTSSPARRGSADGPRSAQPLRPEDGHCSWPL
assay.info: Jurkat-PD-1 Cell Binding High-Content Screening Assay (CBA): Method 1
measurement.setup: Jurkat-hPD-1 cells, PE-labeled PD-L1-Ig 20 nM final; read-out: Jurkat HPDL1 PD1 IC50 (uM) (Method 1)
Bridge positions count the residues as written; N and C are the ends. Square brackets hold non-standard residues; d marks the D form. Peptide text beside a SMILES is read from it. Bip = N[C@@H](Cc1ccc(-c2ccccc2)cc1)C(=O)O; NMeA = CN[C@@H](C)C(=O)O; dAbu = CC[C@@H](N)C(=O)O
measure.name: IC50
Hey, just the number and the unit after it is fine.

Query :: Please report IC50 for the following compound: CC[C@H]1NC(=O)[C@H](C)N(C)C(=O)[C@H](CCCNC(=N)N)NC(=O)[C@H](Cc2ccc(-c3ccccc3)cc2)NC(=O)[C@H](C(C)C)NC(=O)[C@H](Cc2c[nH]c3ccccc23)NC(=O)[C@H](CC(=O)O)NC(=O)[C@H](Cc2ccc(O)cc2)NC(=O)[C@H](Cc2ccccc2)NC(=O)CSC[C@@H](C(=O)N[C@@H](C)C(N)=O)NC(=O)[C@H]([C@@H](C)O)NC(=O)[C@H](C(C)C)NC(=O)[C@H](CC(C)C)NC(=O)[C@H](CCCNC(=N)N)NC1=O [Compound 1069] ({CH2CO}-FYDWV[Bip]R[NMeA][dAbu]RLVTCA-NH2; thioether N-14)
Result :: 0.22 µM

----------
Items are presented alongside their recorded IC50.
target: PE-labeled human PD-L1-Ig binding to Jurkat cell line over-expressing human PD-1 (Jurkat-PD-1) (Homo sapiens, UniProt Q15116)
Construct: expressed in transfected cells; host or cells: Jurkat
assay.info: Jurkat-PD-1 Cell Binding High-Content Screening Assay (CBA): Method 1
measurement.setup: Jurkat-hPD-1 cells, PE-labeled PD-L1-Ig 20 nM final; read-out: Jurkat HPDL1 PD1 IC50 (uM) (Method 1)
Bridge positions count the residues as written; N and C are the ends. Square brackets hold non-standard residues; d marks the D form. Peptide text beside a SMILES is read from it. Bip = N[C@@H](Cc1ccc(-c2ccccc2)cc1)C(=O)O; NMeA = CN[C@@H](C)C(=O)O; Orn = NCCC[C@H](N)C(=O)O; Dab = NCC[C@H](N)C(=O)O
Hey, just the number and the unit after it is fine.

>  <compound>
CC(C)C[C@@H]1NC(=O)[C@H](CCCCN)NC(=O)[C@@H](CC(C)C)NC(=O)[C@H](C)N(C)C(=O)[C@H](Cc2cnc[nH]2)NC(=O)[C@H](Cc2ccc(-c3ccccc3)cc2)NC(=O)[C@H](C(C)C)NC(=O)[C@H](Cc2c[nH]c3ccccc23)NC(=O)[C@H](CC(=O)O)NC(=O)[C@H](Cc2ccc(O)cc2)NC(=O)[C@H](CC(N)=O)NC(=O)CSC[C@@H](C(=O)NCC(N)=O)NC(=O)[C@H]([C@@H](C)O)NC(=O)[C@H](C(C)C)NC1=O [Compound 1484] ({CH2CO}-NYDWV[Bip]H[NMeA][dL]KLVTCG-NH2; thioether N-14)

>  <IC50>
0.07 µM

$$$$
>  <compound>
CC(C)C[C@@H]1NC(=O)[C@H](CCCN)NC(=O)[C@@H](CC(C)C)NC(=O)[C@H](C)N(C)C(=O)[C@H](CCCNC(=N)N)NC(=O)[C@H](Cc2ccc(-c3ccccc3)cc2)NC(=O)[C@H](C(C)C)NC(=O)[C@H](Cc2c[nH]c3ccccc23)NC(=O)[C@H](CC(=O)O)NC(=O)[C@H](Cc2cnc[nH]2)NC(=O)[C@H](CC(N)=O)NC(=O)CSC[C@@H](C(=O)N[C@@H](C)C(N)=O)NC(=O)[C@H]([C@@H](C)O)NC(=O)[C@H](C(C)C)NC1=O [Compound 1131] ({CH2CO}-NHDWV[Bip]R[NMeA][dL][Orn]LVTCA-NH2; thioether N-14)

>  <IC50>
0.28 µM

$$$$
>  <compound>
CC(C)C[C@@H]1NC(=O)[C@H](Cc2c[nH]c3ccccc23)NC(=O)[C@H](CC(=O)O)NC(=O)[C@H](Cc2ccc(C(=O)O)cc2)NC(=O)[C@H](Cc2ccc(OCC(=O)O)cc2)NC(=O)CSC[C@@H](C(=O)NCC(N)=O)NC[C@H](CO)NC(=O)[C@H](C(C)C)NC(=O)[C@H](CC2CCCCC2)NC(=O)[C@H](CC(N)=O)NC(=O)[C@@H](CC(C)C)NC(=O)[C@H](C)N(C)C(=O)[C@H](C(C)C)NC(=O)[C@H](Cc2ccc(-c3ccccc3)cc2)NC1=O

>  <IC50>
0.19 µM

$$$$

Query :: Please report IC50 for the following compound: CC(C)C[C@@H]1NC(=O)[C@H](CCN)NC(=O)[C@@H](CC(C)C)NC(=O)[C@H](C)N(C)C(=O)[C@H](CCC(N)=O)NC(=O)[C@H](Cc2ccc(-c3ccccc3)cc2)NC(=O)[C@H](C(C)C)NC(=O)[C@H](Cc2c[nH]c3ccccc23)NC(=O)[C@H](CC(=O)O)NC(=O)[C@H](Cc2ccc(O)cc2)NC(=O)[C@H](CC(N)=O)NC(=O)CSC[C@@H](C(=O)N[C@@H](C)C(N)=O)NC(=O)[C@H]([C@@H](C)O)NC(=O)[C@H](C(C)C)NC1=O [Compound 1301] ({CH2CO}-NYDWV[Bip]Q[NMeA][dL][Dab]LVTCA-NH2; thioether N-14)
Result :: 0.06 µM
